Reference for the values: patent US20260234242A1

This section presents binders with their documented EC50 values.
target.or.test.system: T1, his-tagged human CDH6 extracellular region protein (hCDH6 ECD-his) (human, UniProt P55285 19-615)
T1 construct: also called Human CDH6-his; hCDH6-his; not shown: his tag
T1 sequence: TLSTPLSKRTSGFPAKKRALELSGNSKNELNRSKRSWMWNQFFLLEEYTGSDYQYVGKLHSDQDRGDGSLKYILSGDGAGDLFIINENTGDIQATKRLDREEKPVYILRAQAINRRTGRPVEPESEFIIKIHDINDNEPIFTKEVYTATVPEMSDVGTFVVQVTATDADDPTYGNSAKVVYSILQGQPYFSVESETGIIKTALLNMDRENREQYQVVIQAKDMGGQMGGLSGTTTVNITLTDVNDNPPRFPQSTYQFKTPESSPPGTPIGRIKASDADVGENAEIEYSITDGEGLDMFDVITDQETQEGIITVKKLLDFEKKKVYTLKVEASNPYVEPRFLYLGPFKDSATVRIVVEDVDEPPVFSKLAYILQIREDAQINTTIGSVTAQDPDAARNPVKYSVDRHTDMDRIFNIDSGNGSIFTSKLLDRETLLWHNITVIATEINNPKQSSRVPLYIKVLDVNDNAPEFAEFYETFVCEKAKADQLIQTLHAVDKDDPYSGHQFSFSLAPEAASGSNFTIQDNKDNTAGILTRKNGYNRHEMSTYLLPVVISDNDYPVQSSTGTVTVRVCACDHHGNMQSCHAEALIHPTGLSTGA
assay.remarks: ELISA, coated antigen

- binder: "NOV0712 (antibody, human IgG1, kappa, V domains shown, Positive control, variable regions from WO2018212136A1; also called positive control anti-human CDH6 antibody) VH: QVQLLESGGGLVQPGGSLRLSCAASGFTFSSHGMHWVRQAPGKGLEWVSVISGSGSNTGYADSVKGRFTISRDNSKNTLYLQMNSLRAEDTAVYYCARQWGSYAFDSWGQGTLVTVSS VL: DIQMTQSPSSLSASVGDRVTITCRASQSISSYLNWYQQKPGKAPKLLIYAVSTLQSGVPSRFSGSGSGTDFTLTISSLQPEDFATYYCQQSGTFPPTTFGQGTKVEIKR"
  EC50, nM: 0.043
- binder: "CHI-CDH6-2 (antibody, human IgG1, kappa, V domains shown, also called chimeric antibody of murine CDH6-2) VH: EVQLQQSGPELVKPGASVRISCKASGYTFTDYYMNWVKQSHGKSLEWIGDIDPNNANTTYNQKFKGKATLTVDKSSSTAYMELRSLTSEDSAVYSCASFGYDVEWFGYWGQGTLVTVSA VL: QIVLTQSPALMSASPGEKVTMTCSASSSVSYMYWYQQKPRSSPKPWIYLTSNLASGVPARFSGSGSGTSYSLTISSMEAEDAATYYCQQWSSNPFTFGSGTKLEIKR"
  EC50, nM: 0.027
- binder: "CHI-CDH6-11 (antibody, human IgG1, kappa, V domains shown, also called chimeric antibody of murine CDH6-11) VH: QIQLQQSGPELVKPGASVRISCKASGYTFTDYYITWVKLRPGQGLEWIGWIYPGSVNIKYNEKFKGKATLTVDTSSSTAYMQLNSLTSEDSAVYFCARGGYSWFPYWGQGTLVTVSA VL: NIVMTQSPKSMSMSVGERVTLSCKASENVHTYVSWYQQKPEQSPKLLFYGASTRNTGVPDRFTGSGSATDFTLTISSVQAEDLADYYCGQSYSYPYTFGSGTKLEIKR"
  EC50, nM: 0.034
- binder: "CHI-CDH6-6 (antibody, human IgG1, kappa, V domains shown, also called CHI-hCDH6-6; chimeric antibody of murine CDH6-6) VH: EVQLQQSGPELVKPGDSVKMSCKASGYTFTDYYMAWVRQSHRKSLEWIGYIFPNSGGTDYSQKFKGKATLTVDKSSSTVYMELHSLTSEDSAVYYCARELGADYGDYYAMDHWGQGTSVSVSS VL: DIQMTQSPASLSASVGETVTITCRASENIDSYLAWYQQKQGKSPQLLVYSATLLADGVPSRFSGSGSGTQYSLKINSLKSEDVARYYCQHYYRTPPTFGSGTKLEIKR"
  EC50, nM: 0.034
- binder: "CHI-CDH6-10 (antibody, human IgG1, kappa, V domains shown, also called chimeric antibody of murine CDH6-10) VH: QVQLQQPGAELVKPGTSVKMSCKASGYTFTSDWIAWVKQRPGQGLEWIGDIYPGSGRTHNNEKFNFKATLTVDTSSNTAYMQLSSLTSEDSAVYFCARPMLGRFDYWGQGTTLTVSS VL: DIVLTQSPASLAVSLGQRATISCRASESVSIHGTHLMHWYQQKPGQPPKLLIYAASNLESGVPARFSGSGSETDFTLNIHPVEEEDAATYFCQQSFEDPFTFGSGTKLEIKR"
  EC50, nM: 0.025
- binder: "CHI-CDH6-13 (antibody, human IgG1, kappa, V domains shown, also called chimeric antibody of murine CDH6-13) VH: DVQLQESGPGLVKPSQSLSLTCSVTGYSITKDSYWNWIRQFPGSKLEWMGFISYDGSRHYNPSLKNRISITRDTSKNQFFLQLNSVTTEDTATYYCARRDYADYWGQGTTLTVSS VL: QIVLTQSPALMSAFPGEKVTMTCSATSSVSYIYWYQQKPRSSPKPWIYLTSNLASGVPARFSGSGSGTSYSLTINSLEAEDAATYYCQQWSSIPYTFGGGTKLEIKR"
  EC50, nM: 0.009
